Where these numbers come from: patent US7435837B2

Structures can show the parent of a compound that is named as a salt.
melting point reference

Please indicate melting point recorded for NCC1Cc2cccc(-c3ccccc3C(F)(F)F)c2O1 (single isomer, unassigned; (+)) (as salt: hydrochloride) [Example 55] 97 to 100 °C

Please report the measured melting point for COc1ccccc1-c1cccc2c1OC(CN)C2 (single isomer, unassigned; (+)) (as salt: hydrochloride) [Example 128] 180 to 184 °C

Identify measured melting point associated with NCC1Cc2cccc(-c3cccc(Cl)c3)c2O1 (racemic) (as salt: hydrochloride) [Example 65] 150 to 154 °C

Write down melting point measured for item NCC1Cc2cccc(-c3ccc(F)cc3F)c2O1 (racemic) (as salt: hydrochloride) 222 to 224 °C

Entry NCC1Cc2cccc(-c3c(Cl)cccc3Cl)c2O1 (racemic) (as salt: hydrochloride) [Example 140] needs its melting point filled in; supply it. 206 to 208 °C

Please indicate melting point recorded for NCC1Cc2cccc(-c3ccc(C(F)(F)F)cc3)c2O1 (single isomer, unassigned; (+)) (as salt: hydrochloride) [Example 137] 226 to 229 °C
